# Tested on: HEK-293 cells/tumour cells
# Experimental details: Mean selective index, HEK-293 vs tumour cells
# Type: cell-based, human
# Setup conditions: MSI = IC50 values HEK-293 cells/IC50 values tumour cells
// reported MSI (mean selective index) for each item listed
Answer using only a numeral; do not append any unit.

O=C(C1=C(Nc2ccccc2)C(=O)c2ccccc2C1=O)c1ccsc1 [Compound 13] : 2.1

Notebook: O=C(C1=C(Nc2ccccc2)C(=O)c2ccccc2C1=O)c1ccco1 [Compound 11] , MSI (mean selective index) read as 13.7

Notebook: COc1cccc(C(=O)C2=C(Nc3ccccc3)C(=O)c3ccccc3C2=O)c1 [Compound 5] , MSI (mean selective index) read as 3.2

These measurements were taken from paper PMC10254843.
